Give phosphorylation enrichment for every item shown.
- System: c-Src
- assay protocol: phosphorylation enrichment, bacterial display (enrichment ratio); higher = better substrate or ligand; peptides without Tyr show the background

# item sequence, endpoint label, val
records = [
    ("VFLARYGPAWR [CYP2D6_Y124]", "phosphorylation enrichment", 0.603),
]

Batch request: phosphorylation enrichment per item, same order as input.
1. FPDFVYKCIKA [DPYSL2_Y479_R481C]
2. LEHCQYVTQKV [ALDOB_Y204_E207Q]
3. NGVSYYINLCQ [IGF2R_Y2025]

1: 0.595; 2: 0.617; 3: 0.374

State recorded phosphorylation enrichment for all listed sequences.
1. LNECHYGALIG [BPGM_Y92_R90C]
2. VQVAFYTMMMN [SPATA17_Y84_YF]
3. TKFRNYLIPNG [CYP2C8_Y379_K383N]
4. IDDLEYLHSQG [STK11_Y166_G163D]
5. HQEPVYSVAFS [TBL1X_Y509]
6. EAEPFYRSLRD [NPHS1_Y1139_YF]

1: 3.61; 2: 0.956; 3: 0.484; 4: 0.578; 5: 9.13; 6: 0.53

---

Give measured phosphorylation enrichment for each item. Keep answers brief.
- assay target: FGFR1 (UniProt P11362)
- Sequence (P11362 whole entry, looked up): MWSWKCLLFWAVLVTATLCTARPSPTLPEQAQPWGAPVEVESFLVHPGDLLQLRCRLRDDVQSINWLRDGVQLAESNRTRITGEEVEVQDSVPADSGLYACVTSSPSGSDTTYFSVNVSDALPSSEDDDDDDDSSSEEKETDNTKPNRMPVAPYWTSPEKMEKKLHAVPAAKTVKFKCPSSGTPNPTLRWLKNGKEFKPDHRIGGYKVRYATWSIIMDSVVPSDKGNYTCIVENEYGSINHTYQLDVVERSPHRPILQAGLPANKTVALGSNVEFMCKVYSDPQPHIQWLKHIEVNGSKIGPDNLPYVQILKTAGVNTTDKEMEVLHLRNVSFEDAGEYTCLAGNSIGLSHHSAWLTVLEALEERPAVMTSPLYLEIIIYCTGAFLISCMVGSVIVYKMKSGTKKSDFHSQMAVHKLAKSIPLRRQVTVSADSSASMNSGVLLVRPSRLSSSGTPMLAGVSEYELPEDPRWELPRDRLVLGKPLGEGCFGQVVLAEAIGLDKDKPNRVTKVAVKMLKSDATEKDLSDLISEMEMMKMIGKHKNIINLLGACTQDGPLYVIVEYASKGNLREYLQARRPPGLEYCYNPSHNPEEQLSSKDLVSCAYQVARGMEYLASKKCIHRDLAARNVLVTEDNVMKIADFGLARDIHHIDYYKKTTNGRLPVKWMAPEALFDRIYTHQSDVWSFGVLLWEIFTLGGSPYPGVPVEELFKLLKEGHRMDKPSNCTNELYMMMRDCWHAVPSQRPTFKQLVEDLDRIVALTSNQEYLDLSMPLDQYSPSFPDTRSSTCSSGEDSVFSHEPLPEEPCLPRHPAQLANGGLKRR
- assay protocol: phosphorylation enrichment, bacterial display (enrichment ratio); higher = better substrate or ligand; peptides without Tyr show the background

Solved cases below.
# item sequence, phosphorylation enrichment
rows = [
    ("IKNSGYISRYL [EIF2AK3_Y585]", 0.513),
    ("GQAPGYSYTAA [CYCS_Y47]", 0.43),
    ("RLRKFHLGKFL [KLB_Y906_Y906H_YF]", 0.417),
    ("LAAPKYKLNVD [SMARCA2_Y1190_A1188P]", 0.258),
]

Give me phosphorylation enrichment for each of these sequences, listed below.
1. QRIHNYYEHRY [HCN4_Y554_D553N]
2. CYVYYYSYLLK [PTEN_Y178_R173C]
3. ANFTEYVATRW [CDKL5_Y171_YF]
4. EARRVYGDIIY [ALDH5A1_Y175_H180Y]

[3.79, 1.8, 0.707, 0.491]

Need phosphorylation enrichment for each of these sequences.
1. HRGSLYLAIEY [TEK_Y899_Y897S]
2. EEALFYLTRVE [SET_Y119_H118Y_YF]
3. CTTIQYNYMCN [TP53_Y234_H233Q]
4. QISRDYGVLLE [PRDX3_Y172]
5. LRVKMYNFLRS [ADGRG7_Y760]
6. ASRKFYAMKIL [AKT3_Y174_G171R_YF]
7. EAEPFYCSLRD [NPHS1_Y1139_R1140C_YF]

1. 0.581
2. 0.599
3. 0.556
4. 0.523
5. 1.71
6. 0.578
7. 0.668

Hey, can you go through the list below and give me phosphorylation enrichment for every item?
1. GTFEDYVEGLR [MYL6_Y89_YF]
2. RQRTAYFSLDT [CDH1_Y68]
3. PANTVYSTVEI [SLAMF7_Y304]
4. AEMTGYVVTRW [MAPK13_Y182]

[0.545, 0.586, 1.43, 0.526]

---

- assay target: Grb2 SH2 (UniProt P62993)
- Sequence (P62993 whole entry, looked up): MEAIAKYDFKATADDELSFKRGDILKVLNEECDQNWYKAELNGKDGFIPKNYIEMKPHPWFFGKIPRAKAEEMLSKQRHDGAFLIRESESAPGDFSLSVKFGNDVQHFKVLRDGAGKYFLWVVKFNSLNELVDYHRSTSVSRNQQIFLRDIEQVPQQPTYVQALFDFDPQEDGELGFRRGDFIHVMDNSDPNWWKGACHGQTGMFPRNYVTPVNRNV
- assay protocol: SH2 binding enrichment of the phosphorylated peptide, bacterial display (enrichment ratio); higher = better substrate or ligand; peptides without Tyr show the background
Give Yes when the value for SH2 binding enrichment is at least 0.9. Give No when it is less.

Tell me whether SH2 binding enrichment is at least 0.9 here: QGIIIYKAAYF [SLC25A4_Y187_R188K]
No
